TEST TARGET: α4β1 integrin (Homo sapiens, UniProt P05556+P13612)
Construct: a T-cell line, Jurkat, known to express the α4β1 integrin
Sequence (P13612 34-1032): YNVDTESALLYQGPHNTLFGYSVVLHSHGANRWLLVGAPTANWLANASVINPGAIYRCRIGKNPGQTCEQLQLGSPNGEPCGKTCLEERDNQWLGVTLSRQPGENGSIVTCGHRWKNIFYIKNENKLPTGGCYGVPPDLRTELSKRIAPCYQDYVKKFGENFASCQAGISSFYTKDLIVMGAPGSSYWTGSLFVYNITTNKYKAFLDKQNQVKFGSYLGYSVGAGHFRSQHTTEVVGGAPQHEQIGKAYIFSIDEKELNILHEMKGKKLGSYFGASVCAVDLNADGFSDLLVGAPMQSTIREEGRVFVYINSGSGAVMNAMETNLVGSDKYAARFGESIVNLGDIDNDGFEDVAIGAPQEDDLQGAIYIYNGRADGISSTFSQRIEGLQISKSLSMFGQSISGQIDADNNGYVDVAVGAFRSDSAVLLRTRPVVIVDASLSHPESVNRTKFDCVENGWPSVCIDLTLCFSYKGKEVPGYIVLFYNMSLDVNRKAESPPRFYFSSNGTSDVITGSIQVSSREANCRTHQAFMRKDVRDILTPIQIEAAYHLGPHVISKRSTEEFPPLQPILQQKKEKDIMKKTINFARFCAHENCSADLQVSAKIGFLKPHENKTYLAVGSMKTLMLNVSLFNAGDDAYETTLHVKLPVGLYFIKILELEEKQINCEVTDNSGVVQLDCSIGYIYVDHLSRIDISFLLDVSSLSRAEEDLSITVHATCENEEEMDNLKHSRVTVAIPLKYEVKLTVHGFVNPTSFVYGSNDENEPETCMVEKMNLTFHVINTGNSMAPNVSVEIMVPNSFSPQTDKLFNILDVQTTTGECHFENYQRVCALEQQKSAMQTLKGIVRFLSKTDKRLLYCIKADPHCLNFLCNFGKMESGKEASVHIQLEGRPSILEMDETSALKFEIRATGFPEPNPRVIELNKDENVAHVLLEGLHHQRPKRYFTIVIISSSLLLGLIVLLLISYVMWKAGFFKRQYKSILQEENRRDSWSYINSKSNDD
Sequence (P05556 21-798): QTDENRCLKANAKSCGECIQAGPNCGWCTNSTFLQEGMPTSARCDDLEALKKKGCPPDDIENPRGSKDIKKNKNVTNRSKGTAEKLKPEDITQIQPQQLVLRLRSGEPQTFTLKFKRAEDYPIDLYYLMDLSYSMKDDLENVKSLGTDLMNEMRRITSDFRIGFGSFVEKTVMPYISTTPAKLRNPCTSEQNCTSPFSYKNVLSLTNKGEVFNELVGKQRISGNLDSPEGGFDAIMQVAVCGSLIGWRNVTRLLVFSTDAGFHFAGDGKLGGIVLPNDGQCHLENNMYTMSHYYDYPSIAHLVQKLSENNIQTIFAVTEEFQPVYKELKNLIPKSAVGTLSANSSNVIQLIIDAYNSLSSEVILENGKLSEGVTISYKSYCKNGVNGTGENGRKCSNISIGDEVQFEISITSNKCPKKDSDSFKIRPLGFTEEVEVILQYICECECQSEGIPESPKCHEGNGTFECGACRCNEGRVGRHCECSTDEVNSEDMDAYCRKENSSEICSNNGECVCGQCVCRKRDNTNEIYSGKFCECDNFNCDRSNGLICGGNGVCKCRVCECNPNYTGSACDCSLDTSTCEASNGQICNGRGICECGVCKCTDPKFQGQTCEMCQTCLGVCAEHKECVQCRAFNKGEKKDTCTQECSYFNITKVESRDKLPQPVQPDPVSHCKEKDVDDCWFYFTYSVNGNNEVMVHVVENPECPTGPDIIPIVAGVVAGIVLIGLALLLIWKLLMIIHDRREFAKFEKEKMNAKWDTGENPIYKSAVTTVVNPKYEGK
ASSAY OVERVIEW: Jurkat-Endothelial Cell Adhesion Assay (Jurkat EC)
MEASUREMENT CONDITIONS: Jurkat cell adhesion to IL-1 stimulated endothelial cell monolayers
OUTCOME MEASURE: IC50

COMPOUND	IC50
CC(Oc1ccccc1C(=O)O)C(=O)N[C@@H](Cc1ccc(NC(=O)c2c(Cl)cccc2Cl)cc1)C(=O)O (some centres unmarked)	800 to 5000 nM
O=C(NC1(C(=O)N[C@@H](Cc2ccc(NC(=O)c3c(Cl)cccc3Cl)cc2)C(=O)O)CC2CCC1C2)c1ccc([N+](=O)[O-])o1 (some centres unmarked)	800 to 5000 nM
O=C(O)c1ccc(C(=O)NC2(C(=O)N[C@@H](Cc3ccc(NC(=O)c4c(Cl)cccc4Cl)cc3)C(=O)O)CCCCC2)nc1	≤ 800 nM
O=C(O)/C=C/C(=O)NC1(C(=O)N[C@@H](Cc2ccc(NC(=O)c3c(Cl)cccc3Cl)cc2)C(=O)O)CCCCC1	5000 to 10000 nM
CC(=O)c1cccc(OC(C)(C)C(=O)N[C@@H](Cc2ccc(NC(=O)c3c(Cl)cccc3Cl)cc2)C(=O)O)c1	800 to 5000 nM
CC(=O)CCC(=O)NC1(C(=O)N[C@@H](Cc2ccc(NC(=O)c3c(Cl)cccc3Cl)cc2)C(=O)O)CCCCC1	≤ 800 nM
O=C(O)/C=C\C(=O)NC1(C(=O)N[C@@H](Cc2ccc(NC(=O)c3c(Cl)cccc3Cl)cc2)C(=O)O)CCCCC1	≤ 800 nM
O=C(NC1(C(=O)N[C@@H](Cc2ccc(NC(=O)c3c(Cl)cccc3Cl)cc2)C(=O)O)CCCCC1)c1cccnc1	≤ 800 nM
CC(C)(Sc1ccccc1C(=O)O)C(=O)N[C@@H](Cc1ccc(NC(=O)c2c(Cl)cccc2Cl)cc1)C(=O)O	≤ 800 nM
O=C(O)c1ccccc1C(=O)NC1(C(=O)N[C@@H](Cc2ccc(NC(=O)c3c(Cl)cccc3Cl)cc2)C(=O)O)CCCCC1	800 to 5000 nM

The reported IC50 of the compound O=C(NC1CCCCC1C(=O)NC(Cc1ccc(NC(=O)c2c(Cl)cccc2Cl)cc1)C(=O)O)c1cccnc1 (centres unmarked) was 800 to 5000 nM

The reported IC50 of the compound "CC1(C)[C@@H](C(=O)N[C@@H](Cc2ccc(NC(=O)c3c(Cl)cccc3Cl)cc2)C(=O)O)C[C@H]1C(=O)O" was 800 to 5000 nM

The reported IC50 of the compound O=C(Nc1ccc(C[C@H](NC(=O)C2(NC(=O)C3CCOC3)CC3CCC2C3)C(=O)O)cc1)c1c(Cl)cccc1Cl (some centres unmarked) was ≤ 800 nM

The reported IC50 of the compound "CC(=O)[C@H]1C[C@@H](CC(=O)N[C@@H](Cc2ccc(NC(=O)c3c(Cl)cccc3Cl)cc2)C(=O)O)C1(C)C" was 5000 to 10000 nM

---

TEST TARGET: α4β1 integrin (Homo sapiens, UniProt P05556+P13612)
Construct: a T-cell line, Jurkat, known to express the α4β1 integrin
ASSAY OVERVIEW: Jurkat-Endothelial Cell Adhesion Assay (Jurkat EC)
MEASUREMENT CONDITIONS: Jurkat cell adhesion to IL-1 stimulated endothelial cell monolayers
pIC50: −log10 of the molar value.
OUTCOME MEASURE: pIC50

COMPOUND	pIC50
O=C(O)c1cccc(C(=O)NC2(C(=O)N[C@@H](Cc3ccc(NC(=O)c4c(Cl)cccc4Cl)cc3)C(=O)O)CCCCC2)c1 [Example 57]	≥ 6.10
O=C(Nc1ccc(C[C@H](NC(=S)N2CCCC(C(=O)O)C2)C(=O)O)cc1)c1c(Cl)cccc1Cl (stereo partly drawn) [Example 117]	≥ 6.10

Now let's try a different one.
Noted pIC50 for CC(=O)c1cccc(OC(C)C(=O)N[C@@H](Cc2ccc(NC(=O)c3c(Cl)cccc3Cl)cc2)C(=O)O)c1 (stereo partly drawn) [Example 18] , tested on α4β1 integrin (Homo sapiens, UniProt P05556+P13612): 5.30 to 6.10
